# target.of.assay: [^3 H]BFI binding sites (I2 binding site)
# experiment: Ligand competition for [^3 H]BFI binding in human cortex
# details: read-out: Ki for competition of [^3 H]BFI binding, two-site model, first (high-affinity) value; human cortex, 8 nM [^3 H]BFI, two-site fit
property.measured: pKi
# pKi = -log10(concentration in molar units)

Task: # pKi lookup, item Clc1cccc(Cl)c1N=C1NCCN1
Output: 7.13

* * *

# target.of.assay: [^3 H]BFI binding sites (I2 binding site)
# experiment: Ligand competition for [^3 H]BFI binding in human cortex
# details: read-out: Ki for competition of [^3 H]BFI binding, two-site model, second (low-affinity) value; human cortex, 8 nM [^3 H]BFI, two-site fit
property.measured: pKi
Note: pKi values are expressed as the negative base-10 logarithm of concentration in M.

Task: For [^3 H]BFI binding sites (I2 binding site), provide pKi of Clc1cccc(Cl)c1N=C1NCCN1 please.
Output: 4.06

* * *

# target.of.assay: [^3 H]BFI binding sites (I2 binding site) (Homo sapiens, UniProt P27338)
# Construct: Frozen sections of human cortex (Brodman's areas 8,9,10), human medulla
# Sequence (P27338 2-520 limits assumed): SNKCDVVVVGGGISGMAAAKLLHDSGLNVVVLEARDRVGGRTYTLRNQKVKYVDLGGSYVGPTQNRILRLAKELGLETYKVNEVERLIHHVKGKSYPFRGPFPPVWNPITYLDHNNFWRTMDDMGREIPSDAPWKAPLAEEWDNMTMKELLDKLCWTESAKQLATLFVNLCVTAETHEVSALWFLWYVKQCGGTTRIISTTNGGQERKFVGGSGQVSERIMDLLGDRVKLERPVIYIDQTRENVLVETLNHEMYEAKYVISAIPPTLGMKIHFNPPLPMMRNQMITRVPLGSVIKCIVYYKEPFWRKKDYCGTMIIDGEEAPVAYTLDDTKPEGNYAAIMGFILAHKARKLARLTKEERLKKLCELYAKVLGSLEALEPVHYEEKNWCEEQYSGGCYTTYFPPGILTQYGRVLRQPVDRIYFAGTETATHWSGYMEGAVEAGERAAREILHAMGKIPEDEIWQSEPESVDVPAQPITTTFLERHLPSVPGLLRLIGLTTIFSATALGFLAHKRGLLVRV
# experiment: Ligand competition for [^3 H]BFI binding in human cortex
For each of the molecules below, state its Ki.
# value in µM; strip the unit string

Task: // returns reported Ki for input COC1(C2=NCCN2)COc2ccccc2O1 (stereo not shown)
Output: 9.4

Task: Proceed to c1ccc2c(c1)OCC(C1=NCCN1)O2 (stereo not shown)
Output: 0.0804

Task: And then c1ccc(C2CC2)c(OCC2=NCCN2)c1 , what is it?
Output: 0.013

Task: And what about the molecule N=C(N)N/N=C/c1c(Cl)cccc1Cl ?
Output: 0.0725

* * *

# target.of.assay: [^3 H]BFI binding sites (I2 binding site) (Homo sapiens)
# Construct: Frozen sections of human cortex (Brodman's areas 8,9,10), human medulla; from tissue; host or cells: P2 membranes of human cortex (Brodmann areas 8, 9, 10) and human medulla (NRL)
# experiment: Ligand competition for [^3 H]BFI binding in human cortex
# details: human brain
property.measured: Affinity in competition for [^3 H]BFI binding

Please review the following examples before continuing.
Task: Looking for the measured Affinity in competition for [^3 H]BFI binding of COC1(C2=NCCN2)COc2ccccc2O1 (stereo not drawn) , can you help?
Output: low affinity

Task: // repeat for N=C(N)NC(=O)c1nc(Cl)c(N)nc1N [amiloride] and report
Output: low affinity

Task: Also check Clc1cccc(Cl)c1N=C1NCCN1
Output: low affinity

Task: What about c1ccc(C2CC2)c(OCC2=NCCN2)c1 ?
Output: high affinity

Task: Item: N=C(N)N/N=C/c1c(Cl)cccc1Cl
Output: high affinity

Now for the molecule whose Affinity in competition for [^3 H]BFI binding we want.
Task: Look up Affinity in competition for [^3 H]BFI binding: COc1nc(C)nc(Cl)c1N=C1NCCN1
Output: low affinity
